molecular target: human 5-HT6 receptor (Homo sapiens, UniProt P50406); construct: host or cells: CHO-K1 cells, stably transfected; membranes prepared in house; experiment: Human 5-HT6 Receptor Binding Assay ([3H]LSD, scintillation beads); conditions: membranes of CHO-K1 cells with recombinant human 5-HT6 receptor, 4 nM [3H]LSD, Cheng-Prusoff; read-out: Human 5-HT6 Ki app
Sequence (P50406 whole entry): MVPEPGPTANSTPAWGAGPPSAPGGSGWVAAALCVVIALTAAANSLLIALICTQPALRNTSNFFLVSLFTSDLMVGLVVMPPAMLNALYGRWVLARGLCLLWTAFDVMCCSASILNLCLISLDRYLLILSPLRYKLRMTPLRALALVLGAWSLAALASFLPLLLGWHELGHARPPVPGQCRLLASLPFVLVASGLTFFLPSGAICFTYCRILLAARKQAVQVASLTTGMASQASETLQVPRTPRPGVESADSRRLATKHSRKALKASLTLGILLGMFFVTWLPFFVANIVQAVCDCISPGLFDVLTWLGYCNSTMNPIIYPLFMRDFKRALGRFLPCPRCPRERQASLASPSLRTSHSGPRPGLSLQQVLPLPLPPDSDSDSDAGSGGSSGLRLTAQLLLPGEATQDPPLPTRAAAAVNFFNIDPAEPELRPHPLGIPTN
pKi: −log10 of the molar value.
quantityName: pKi

Take a look at these entries with their results.
[[record]]
compound = "O=S(=O)(c1ccccc1)c1ccc2c(c1)OCC1C2CCN1C1CCCC1 (single isomer, unassigned) [Example 61]"
result = "> 6.30"

[[record]]
compound = "CC(C)Oc1cc(F)cc(S(=O)(=O)c2ccc3c(c2)OCC2NCCC32)c1 (single isomer, unassigned) [Example 108]"
result = "> 6.30"


Please report the recorded pKi for CC(C)Oc1cccc(S(=O)(=O)c2ccc3c(c2)OCC2NCCC32)c1 (racemic) [Example 107] .
> 6.30

Please report the recorded pKi for CN(C)C(=O)c1cccc(S(=O)(=O)c2ccc3c(c2)OC[C@H]2NCC[C@@H]32)c1 (single isomer, unassigned) .
> 6.30

* * *

biological target: human 5-HT6 receptor (Homo sapiens); construct: host or cells: CHO-K1 cells, stably transfected; membranes prepared in house; experiment: Human 5-HT6 Receptor Binding Assay ([3H]LSD, scintillation beads); details: membranes of CHO-K1 cells with recombinant human 5-HT6 receptor, 4 nM [3H]LSD, Cheng-Prusoff; read-out: Human 5-HT6 Ki app
pKi: −log10 of the molar value.
Items are presented alongside their recorded pKi.

[[record]]
molecule = "O=S(=O)(c1ccc(F)cc1)c1ccc2c(c1)OCC1NCCC21 (single isomer, unassigned) [Example 13]"
experimentalsystem = "human 5-HT6 receptor (Homo sapiens)"
quantityname = "pKi"
result = "> 6.30"

[[record]]
molecule = "O=S(=O)(c1ccccc1)c1ccc2c(c1)OCC1C2CCN1C1CCCCC1 (single isomer, unassigned) [Example 63]"
experimentalsystem = "human 5-HT6 receptor (Homo sapiens)"
quantityname = "pKi"
result = "> 6.30"

[[record]]
molecule = "COc1cc(F)cc(S(=O)(=O)c2ccc3c(c2)OCC2NCCC32)c1 (racemic) [Example 109]"
experimentalsystem = "human 5-HT6 receptor (Homo sapiens)"
quantityname = "pKi"
result = "> 6.30"

[[record]]
molecule = "CC(C)Oc1cccc(S(=O)(=O)c2ccc3c(c2)OCC2NCCC32)c1 (single isomer, unassigned) [Example 18]"
experimentalsystem = "human 5-HT6 receptor (Homo sapiens)"
quantityname = "pKi"
result = "> 6.30"


Please report the recorded pKi for O=S(=O)(c1ccc2c(c1)OCC1NCCC21)c1cccc2c1CCO2 (single isomer, unassigned) [Example 37] .
> 6.30

Please report the recorded pKi for COc1cncc(S(=O)(=O)c2ccc3c(c2)OCC2C3CCN2C2CCC2)c1 (single isomer, unassigned) [Example 74] .
< 6.00

Please report the recorded pKi for CC(C)CN1CCC2c3ccc(S(=O)(=O)c4ccccc4)cc3OCC21 (single isomer, unassigned) [Example 91] .
> 6.30

Please report the recorded pKi for O=S(=O)(c1ccccc1)c1ccc2c(c1)OCC1C2CCN1C1CCC1 (single isomer, unassigned) [Example 60] .
< 6.00

Please report the recorded pKi for O=S(=O)(c1ccc2c(c1)OCC1NCCC21)c1cccc2c1CCO2 (single isomer, unassigned) [Example 45] .
> 6.30

Please report the recorded pKi for CC(C)CN1CCC2c3ccc(S(=O)(=O)c4ccccc4)cc3OCC21 (single isomer, unassigned) [Example 98] .
< 6.00

Please report the recorded pKi for CC(C)CCCN1CCC2c3ccc(S(=O)(=O)c4ccccc4)cc3OCC21 (single isomer, unassigned) [Example 101] .
< 6.00

Please report the recorded pKi for O=S(=O)(c1ccccc1)c1ccc2c(c1)C1CCN(C3CCC3)C1CO2 (single isomer, unassigned) [Example 89] .
> 6.30

Please report the recorded pKi for O=S(=O)(c1ccccc1)c1ccc2c(c1)OCC1NCCC21 (racemic) [Example 104] .
> 6.30

Please report the recorded pKi for [O-][S+](c1ccccc1)c1ccc2c(c1)OCC1NCCC21 (racemic) [Example 25] .
> 6.30

Please report the recorded pKi for O=S(=O)(c1ccccc1)c1ccc2c(c1)OCC1C2CCN1C1CCOC1 (single isomer, unassigned) [Example 66] .
< 6.00

* * *

biological target: human 5-HT6 receptor (Homo sapiens, UniProt P50406); construct: host or cells: CHO-K1 cells, stably transfected; membranes prepared in house; test: Human 5-HT6 Receptor Binding Assay ([3H]LSD, scintillation beads); details: Human 5-HT6 Ki app (nM), membranes of CHO-K1 cells with recombinant human 5-HT6 receptor, 4 nM [3H]LSD, Cheng-Prusoff
quantityName: Ki

Take a look at these entries with their results.
[[record]]
compound = "COc1cncc(S(=O)(=O)c2ccc3c(c2)OCC2NCCC32)c1 (single isomer, unassigned) [Example 33]"
experimentalsystem = "human 5-HT6 receptor (Homo sapiens, UniProt P50406)"
result = "< 500 nM"

[[record]]
compound = "COc1cncc(S(=O)(=O)c2ccc3c(c2)OCC2NCCC32)c1 (racemic) [Example 110]"
experimentalsystem = "human 5-HT6 receptor (Homo sapiens, UniProt P50406)"
result = "< 500 nM"

[[record]]
compound = "Cc1cccc([S+]([O-])c2ccc3c(c2)OCC2NCCC32)n1 (single isomer, unassigned)"
experimentalsystem = "human 5-HT6 receptor (Homo sapiens, UniProt P50406)"
result = "< 500 nM"


Please report the recorded Ki for O=S(=O)(c1cncc(F)c1)c1ccc2c(c1)OCC1NCCC21 (single isomer, unassigned) [Example 32] .
> 1000 nM

Please report the recorded Ki for O=S(=O)(c1cncc(Br)c1)c1ccc2c(c1)OCC1NCCC21 (single isomer, unassigned) .
< 500 nM

Please report the recorded Ki for O=S(=O)(c1cncc(F)c1)c1ccc2c(c1)OCC1NCCC21 (single isomer, unassigned) [Example 29] .
< 500 nM

Please report the recorded Ki for COc1cncc(S(=O)(=O)c2ccc3c(c2)OCC2NCCC32)c1 (single isomer, unassigned) [Example 35] .
> 1000 nM

Please report the recorded Ki for Cc1cccc(S(=O)(=O)c2ccc3c(c2)OCC2NCCC32)n1 (single isomer, unassigned) .
< 500 nM

Please report the recorded Ki for O=S(=O)(c1cncc(Cl)c1)c1ccc2c(c1)OCC1NCCC21 (single isomer, unassigned) [Example 30] .
< 500 nM

Please report the recorded Ki for O=S(=O)(c1cncc(Cl)c1)c1ccc2c(c1)OCC1NCCC21 (racemic) [Example 111] .
< 500 nM

* * *

Target: human 5-HT6 receptor (Homo sapiens)
Construct: host or cells: CHO-K1 cells, stably transfected; membranes prepared in house
Assay: Human 5-HT6 Receptor Binding Assay ([3H]LSD, scintillation beads)
Conditions: membranes of CHO-K1 cells with recombinant human 5-HT6 receptor, 4 nM [3H]LSD, Cheng-Prusoff; read-out: Human 5-HT6 Ki app
Method: Human 5-HT6 Receptor Binding Assay Membranes were prepared from CHO-K1 cells stably transfected with the human 5-HT6 receptor (Euroscreen; ES-316-C). […] The membranes were centrifuged at 40,000×g for 30 min at 4° C. and the pellets were resuspended in membrane buffer containing 250 mM sucrose, and protein concentration was determined using the Coomassie Plus kit (Pierce Biotechnology, Rockford, Ill.). […]
quantityName: Ki

Take a look at these entries with their results.
[[record]]
molecule = "O=S(=O)(c1ccccc1)c1ccc2c(c1)C1CCN(C3CCC3)C1CO2 (single isomer, unassigned) [Example 88]"
result = "< 500 nM"

[[record]]
molecule = "O=S(=O)(c1ccc2c(c1)OCC1NCCC21)c1cc(F)cc(F)c1F (single isomer, unassigned) [Example 42]"
result = "< 500 nM"


Attention now turns to another entry.
Please report the recorded Ki for O=S(=O)(c1cc(F)cc(Cl)c1)c1ccc2c(c1)OCC1NCCC21 (single isomer, unassigned) [Example 6] .
< 500 nM
